target.system: T1, UNK ZnF1-3 (human, UniProt Q9C0B0 31-174)
T1 sequence: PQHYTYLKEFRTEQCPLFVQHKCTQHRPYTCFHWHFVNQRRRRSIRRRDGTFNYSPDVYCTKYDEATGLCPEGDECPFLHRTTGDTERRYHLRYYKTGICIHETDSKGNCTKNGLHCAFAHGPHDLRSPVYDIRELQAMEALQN
procedure.details: nsRBNS (natural sequence RNA bind-n-seq); RBNS binding buffer (assumed for nsRBNS): 25 mM Tris pH 7.5, 150 mM KCl, 3 mM MgCl2, 0.01% Triton X-100, 500 ug/ml BSA, 20 U/ml SUPERase-In, 4 C; UNK is unkempt and MSI1 is Musashi-1; names of the RNAs are library labels; protein concentration not given here; high values mean tight binding
Whole data set: some 24,000 sequences, median “enrichment r” near 0.99, cut for the highest 2% near 3.7. This excerpt belongs to a sample that is enriched for the highest values.
Each record is given yes (1) if its reported binding signal is strictly below 3 enrichment R. Records at or above 3 enrichment R are given no (0).

[[record]]
binder = "chr14:57341393:57341394:-_ENSMUSG00000021938_ENSMUST00000022507|mus_hu|FALSE|FALSE (ssRNA) RNA: GGGAGUUCUACAGUCCGACGAUCCUGAAUAUUCAGAAGCUAUAUGAAAUGUAGCUGGAAAUUCCGAUUUCACAGAACAUCAGUGGUUUAUACAAAUUAAACUCCCAUACCCUCCCACCCCCACAUAUACUACUCUAUCUACCCCAACAGAGGAUUGAGCAUCA"
assigned_class = "no (0)"

[[record]]
binder = "chr14:49633609:49633610:-_ENSMUSG00000061244_ENSMUST00000162175|mus_mus|FALSE|FALSE (ssRNA) RNA: GGGAGUUCUACAGUCCGACGAUCCAUUCAUUUUCUGACACCAACAUUUUCCAGGAUUAUAACAGUCAUGUAGGUUUAUAGAAUUUGAAAUUUAUAAAUUAAAGUAUAGAAUUCAACAUAACAGGGAAAAGAUAAAAAUACAGCCAACAGAGGAUUGAGCAUCA"
assigned_class = "no (0)"

[[record]]
binder = "chr4:136876768:136876769:-_ENSMUSG00000006699_ENSMUST00000051477|mus_mus|FALSE|FALSE (ssRNA) RNA: GGGAGUUCUACAGUCCGACGAUCAAACAACAAACGUUUGUGGGGAUUUUUGUUUUUUUUUUUAAACAAAGAAAACAAAAACUAGCACUCAUUGCUUUUCAGACAAUACAUAAUUAUUCAAAAUUAACUAUUACUGGAAGGGCACAACAGAGGAUUGAGCAUCA"
assigned_class = "yes (1)"

[[record]]
binder = "48457567_48458910_1668_CDS_ENSG00000079387_ENST00000551330|human|control|control (ssRNA) RNA: GGGAGUUCUACAGUCCGACGAUCGAGAACUUCAUCCUGAUUCCCAUUACGAAAUACAUUCUUUAUUUCUUUCUCCAUUUCCUCUGUAAUUUCAGGAAAUUCAUCUUCACUAUCAGUUAAUUUAUGACCUUUUUUUUGUGUUUCCAACAGAGGAUUGAGCAUCA"
assigned_class = "yes (1)"

[[record]]
binder = "chr11:130013608:130013609:+_ENSG00000084234_ENST00000528499|hu_hu|motif|central (ssRNA) RNA: GGGAGUUCUACAGUCCGACGAUCAGCAUGUGUCAGACAAUACAAUGGAAGUGGGGUUUCUGAUUAAUUUAAAAAAGAAAACGGCAUCAAAUAUCUGCAAUAGAUCAUUUUUUUCAUUUAAGGUUUAUAUAUCAUAUAUUGUUACAACAGAGGAUUGAGCAUCA"
assigned_class = "no (0)"

[[record]]
binder = "chr6:30403744:30403745:+_ENSMUSG00000029775_ENSMUST00000068259|mus_mus|motif|central (ssRNA) RNA: GGGAGUUCUACAGUCCGACGAUCAGGAGAAGGCUAAACACUGAUUAUCUAUGGAUUUCGAUUGUGUGUGCUUUCACCUUGCGGCAGUGGAUAACGAAAGAUCAGUCAUACUUUUAAUCUAGAAAUGUUAAUAUUUUCAUCAUACAACAGAGGAUUGAGCAUCA"
assigned_class = "yes (1)"


Source: paper PMC12136788
